The reported numbers originate from patent US4503256A.

# Test system: S. AUREUS
# assay.info: Minimum Inhibitory Concentration (MIC), broth dilution in Brain Heart Infusion broth
# Assay type: cell-based, Staphylococcus aureus
# run.parameters: Staphylococcus aureus; 37° C., 48 hours, Brain Heart Infusion broth; read-out: MIC S. AUREUS
# Procedure: For testing against the bacteria, concentrations of each of the compounds were prepared in Brain Heart Infusion broth (Oxoid CM225) in two-fold steps from 1000 μg/ml to 1 μg/ml. […] After incubation the broths were examined for evidence of growth. The lowest concentration of the test compound which prevented growth was recorded as the Minimum Inhibitory Concentration (MIC).
Some molecules, each annotated with its measured MIC.

{"molecule": "CCC(=O)c1c(O)cc(O)c(CC=C(C)C)c1O [Compound 2]", "MIC [µg/mL]": 125}
{"molecule": "CCCCCC(=O)c1c(O)cc(O)c(CC=C(C)C)c1O [Compound 5]", "MIC [µg/mL]": 8}
{"molecule": "C=CCc1c(O)cc(O)c(C(=O)CCC(C)C)c1O [Compound 19]", "MIC [µg/mL]": 16}
{"molecule": "CCCC(=O)c1c(O)cc(O)c2c1OC(C)(C)CC2 [Compound 30]", "MIC [µg/mL]": 32}
{"molecule": "CCCCCCCC(=O)c1c(O)cc(O)c(CC=C(C)C)c1O [Compound 11]", "MIC [µg/mL]": 64}
{"molecule": "CC(C)=CCc1c(O)cc(O)c(C(=O)Cc2ccc(Cl)cc2)c1O [Compound 14]", "MIC [µg/mL]": 16}
{"molecule": "CCCCCCCCC(=O)c1c(O)cc2c(c1O)CCC(C)(C)O2 [Compound 34]", "MIC [µg/mL]": 500}
{"molecule": "CC(C)=CCc1c(O)cc(O)c(C(=O)CCC(C)C)c1O [Compound 7]", "MIC [µg/mL]": 16}
{"molecule": "C=CCc1c(O)cc(O)c(C(=O)CCCC)c1O [Compound 17]", "MIC [µg/mL]": 64}
{"molecule": "CC(C)CCC(=O)c1c(O)cc2c(c1O)CCC(C)(C)O2 [Compound 33]", "MIC [µg/mL]": 125}
{"molecule": "CCCC(=O)c1c(O)c2c(c(C(=O)CCC)c1O)OC(C)C2 (centres unmarked) [Compound 37]", "MIC [µg/mL]": 125}
{"molecule": "C=CCc1c(O)cc(O)c(C(=O)Cc2ccc(Cl)cc2)c1O [Compound 23]", "MIC [µg/mL]": 32}
{"molecule": "CC(C)CCC(=O)c1c(O)cc(O)c2c1OC(C)(C)CC2 [Compound 31]", "MIC [µg/mL]": 16}
{"molecule": "CCCCC(=O)c1c(O)cc(O)c(CC=C(C)C)c1O [Compound 4]", "MIC [µg/mL]": 64}
{"molecule": "CCCCCCCCC(=O)c1c(O)cc(O)c2c1OC(C)(C)CC2 [Compound 32]", "MIC [µg/mL]": 64}
{"molecule": "CC(C)CCC(=O)c1c(O)cc(O)c(Cc2ccccc2)c1O [Compound 25, 2-Isocaproyl-4-benzylphloroglucinol]", "MIC [µg/mL]": 16}
{"molecule": "C=CCc1c(O)cc(O)c(C(=O)CCCCC)c1O [Compound 18]", "MIC [µg/mL]": 16}
{"molecule": "C=CCc1c(O)cc(O)c(C(=O)CC)c1O [Compound 15]", "MIC [µg/mL]": 250}
{"molecule": "CCCC(=O)c1c(O)c2c(c(C(=O)CCC)c1O)OC(C)(C)CC2 [Compound 36]", "MIC [µg/mL]": 250}
{"molecule": "CCCC(=O)c1c(O)cc(O)c(C(=O)CCC)c1O [Compound 1, 2,4-Dibutyrylphloroglucinol]", "MIC [µg/mL]": 2}
